test system: SNB-19 CNS; assay: NCI-60 one-dose screen, 48 h (100 = growth as untreated, 0 = no growth, -100 = all killed); details: 10 µM unless noted
This is part of a sample that, as a whole, favours compounds with a hit. Of some 83,000 tested, about 20% had one in any assay.
Think of 70% as a floor: if growth stands on it or above, it is yes; beneath it, no.

| compound | targetOrSystem | classAssignment |
| --- | --- | --- |
| CCc1ccc(SC2c3ccc(N(CC)CC)cc3Oc3nc(N)c(C#N)c(N)c32)cc1 (stereo not drawn) | SNB-19 CNS | no |
| CCCCCc1ccc(S(=O)(=O)Nc2cc(-c3csc(NC(=O)CN4CCN(C)CC4)n3)ccc2OC)cc1 | SNB-19 CNS | no |
| COc1cc(OC)c(/C=C/S(=O)(=O)Cc2ccc(OC)c(NC(=O)CCC(=O)NO)c2)c(OC)c1 | SNB-19 CNS | no |
| CN1CCN(Cc2ccc(NC(=O)c3cncc(C#Cc4cnn5cccnc45)c3)cc2C(F)(F)F)CC1 | SNB-19 CNS | no |
| CCCn1cnc2c(c1=N)C(c1ccc(F)cc1)c1sc3c(CC)cccc3c1O2 (stereo not drawn) | SNB-19 CNS | no |
| COc1ccc(C(=O)c2c(N)c(C#N)cn2-c2ccccc2OC)cc1 | SNB-19 CNS | no |
| COc1ccc(S(=O)(=O)NCCCNc2nccc(-c3cn(C(C)(C)C)nc3-c3ccc(Cl)c(OC)c3)n2)cc1 | SNB-19 CNS | yes |
| O=C(NNc1nc2cc(F)c(F)cc2n2c(CN3CC4CNCC4C3)ccc12)c1cnccn1 (stereo not drawn) | SNB-19 CNS | no |
| O=C(NNc1nc2cc(F)ccc2n2cccc12)c1ccncn1 | SNB-19 CNS | no |
| c1ccc(C(c2nc3ncncc3[nH]2)N2CSc3nc4ncncc4n3C2)cc1 (stereo not drawn) | SNB-19 CNS | yes |
| O=C(Cn1cc(-c2ccccc2)nn1)Nc1nc(-c2ccc(Cl)cc2)cs1 | SNB-19 CNS | yes |
| C=C(C=O)[C@@H]1CC[C@]2(C)[C@H](CC=C3[C@H]4[C@@H](C)[C@H](C)CC[C@]4(C(=O)OC)CC[C@]32C)[C@@]1(C)CCC#N | SNB-19 CNS | no |
| COc1ccc([C@@H]2[C@@H](O)C(=O)N2c2cc(OC)c(OC)c(OC)c2)cc1F | SNB-19 CNS | no |
| Cc1ccc(C2=NN(C)C(=O)C3(CCCC3)C2)cc1 | SNB-19 CNS | yes |
| Cc1ccc(NC(=S)NNC(=S)Nc2ccc(C)cc2)cc1 | SNB-19 CNS | yes |
| C[C@@H]1C[C@H]2C(=O)O[C@@H](C)C(NC(=O)[C@H](Cc3cc(F)cc(F)c3)NC(=O)Nc3ccc(Cl)cc3F)C(=O)N3CCC[C@H]3C(=O)N3CCCC[C@H]3C(=O)N[C@@H](CO)C(=O)N2C1 (stereo partly drawn) | SNB-19 CNS | no |
| O=C(Nc1ccc2c(ccn2Cc2ccccn2)c1)c1ccnnc1 | SNB-19 CNS | yes |

----------
tested on: SNB-19 CNS; test: NCI-60 one-dose screen, 48 h; conditions: 10 µM unless noted
Compounds without any hit were thinned out: in the full panel of roughly 83,000, 20% have a hit. Activity calls are given as the source filed them. Rule for the calls: active = growth percent below 10; inactive = the rest.
Possible outcomes: active, inactive

| molecule | classAssignment |
| --- | --- |
| COc1c(N2CC3CCCNC3C2)c(F)cc2c(=O)c(C(=O)N/N=C/c3ccc(N(C)C)cc3)cn(C3CC3)c12 (stereo unspecified) | inactive |
| C=CCn1c(SCC(=O)Nc2ccc(C(=O)/C=C/c3cc(OC)c(OC)c(OC)c3)cc2)nnc1-c1c[nH]c2ccccc12 | inactive |
| Cc1ccc(NC(=O)c2ccc(CN3CCN(C)CC3)cc2)cc1Oc1ccc(-c2[nH]nc3ncnc(N)c23)cc1 | inactive |
| O=C1CCC(N2C(=O)c3ccc(NS(=O)(=O)c4ccccc4OC(F)(F)F)cc3C2=O)C(=O)N1 (stereo unspecified) | inactive |
| NC(N)=Nc1ccc(Oc2cccc(NC(N)=Nc3ccc(Cl)c(C(F)(F)F)c3)c2)cc1 | inactive |
| N#Cc1cccc(/C(N)=N/C(N)=N/c2nc3ccccc3s2)c1 | inactive |
| CC1(COc2ccc3ncc(C#Cc4cncc(C(=O)Nc5cccc(C(F)(F)F)c5)c4)n3n2)COC1 | inactive |
| O=C(Nc1nc2ccc([N+](=O)[O-])cc2s1)Nc1ccccc1Br | inactive |
| O=C(CN1CCN(c2cc(=O)[nH]c3ccc(F)cc23)CC1)Nc1ccc(Cl)cc1 | inactive |
| COC(=O)c1ccc(NC2=C/C(=N/S(=O)(=O)c3ccc(C(=O)O)cc3)c3ccccc3C2=O)cc1 | inactive |
| C#C[C@]1(O)CC[C@H]2[C@@H]3CC=C4c5sc(-c6ccc(C)cc6)nc5CC[C@]4(C)[C@H]3CC[C@@]21C | inactive |
| Nc1ccccc1NC(=O)c1ccc(NC(=O)C/C=C/c2cccnc2)cc1 | inactive |
| Cc1ccc(-c2nn(-c3ccccc3)cc2/C=C/C(=O)c2ccc(NC(=O)CCCCCCC(=O)NO)cc2)cc1 | inactive |
| Fc1ccc(-c2cc3nc(C(Cl)Cl)nc(-c4ccc(F)cc4)n3n2)cc1 | active |
| COc1cc2nc(Cl)nc(Nc3cccc(C4=Nc5c(N)nc(N)nc5NC(c5ccc(Cl)cc5)C4)c3)c2cc1OC (stereo unspecified) | inactive |
| COc1ccc(-c2nc3ccc(-c4nnc(SCC(=O)Nc5ccc(C(=O)/C=C/c6ccc(Cl)cc6)cc5)o4)cc3[nH]2)cc1 | inactive |
| N#Cc1cccc(CN2CCC3=C(C2)C(=O)N(Cc2ccc(Cl)cc2)C2=NCCCN23)c1 | inactive |
| COc1ccc(C(=O)CSc2nc3c(c(Nc4ccc(S(N)(=O)=O)cc4)n2)CCCC3)cc1 | inactive |
| CCNC(=O)Oc1ccc(/C(=C(/C)c2ccccc2)c2ccc(OCCN3CCCCCC3)cc2)cc1 | inactive |
| Cc1ccc(-c2cc3nc(C(Cl)Cl)nc(-c4ccco4)n3n2)cc1 | active |
| C=CCn1c(SCC(=O)Nc2ccc(C(=O)/C=C/c3ccc(Cl)cc3)cc2)nnc1-c1c[nH]c2ccccc12 | inactive |
| CCOC(=O)c1c(Nc2ccccc2)nn2c(-c3ccc(Cl)cc3)ccnc12 | inactive |
| O=C(CSc1nnc(-c2ccc3nc(-c4ccccc4)[nH]c3c2)o1)Nc1ccc(C(=O)/C=C/c2ccccc2)cc1 | inactive |
| CCO/C=N/C1=C(C#N)C(c2ccc(Cl)cc2)c2sc3c(CC)cccc3c2O1 (stereo unspecified) | inactive |
| CCCn1cnc2c(c1=N)C(c1ccc(OC)cc1)c1sc3c(CC)cccc3c1O2 (stereo unspecified) | inactive |
| O=C(Cn1c(-c2ccccc2)nc2cc(Cl)c(Cl)cc21)N=Nc1c(O)[nH]c2ccc(Cl)cc12 | inactive |
| Nc1nc(-c2cccc([N+](=O)[O-])c2)c(N=Nc2ccccc2)s1 | inactive |
| COc1cc(-c2nc(SCCC(C)C)nc(NNC(=O)c3ccncc3)c2C#N)cc(OC)c1OC | inactive |
| CCc1cccc(NC(=O)CNc2cc(S(=O)(=O)N(C)C)cc(C)c2C)c1 | inactive |
| C=C(C)[C@@H]1CC[C@]2(C(=O)NCCCCCN(CCC#N)CCC#N)CC[C@]3(C)[C@H](CC[C@@H]4[C@@]5(C)CCC(=O)C(C)(C)[C@@H]5CC[C@]43C)[C@@H]12 | inactive |
| CCCSc1nc(Nc2ccc(/C(C)=N\NC(N)=S)cc2)c(C#N)c(-c2ccccc2)n1 | inactive |
| COc1ccccc1-n1cc(C#N)c(N)c1C(=O)c1ccc(Br)cc1 | inactive |
| COc1ccc(N2CCN(C3=C(Cl)C(=O)C(C)=C(C)C3=O)CC2)cc1 | inactive |
| N/C(=N\C(N)=N\c1nc2ccccc2s1)c1cccc(F)c1 | inactive |
| O=S(=O)(NC1c2ccccc2C[C@H]1O)c1ccc(Cl)cc1Cl (stereo partly specified) | inactive |
| O=C(CN1CCN(c2cc(=O)n(-c3ccccc3)c3ccccc23)CC1)Nc1nc(-c2ccccc2)cs1 | inactive |

Source of measurements: PubChem BioAssay (NCI)
